- test method notes: TOR pathway LAP4-GFP level changes – S. cerevisiae, multiplex flow cytometry, primary screen (AID 1873)
- condition description: S. cerevisiae LAP4-GFP expression, 3 h, at 10 µM, stronger effect = higher value
Results filed as inconclusive are left out.
reported endpoint: GFP response vs DMSO (%)
Express it in %; write the number only.

Examples with answers:
COc1ccc(NC(=O)Nc2ccc(C(C)C)cc2)cc1 :: 95.9
CC(C)C12CN3CC(C(C)C)(CN(C1)C3c1ccccc1O)C2=O (stereo not given) :: 75.9
O=C1c2ccccc2C(=O)N1/N=C/c1ccc(Oc2ccc([N+](=O)[O-])cn2)cc1 :: 92

// query Look up GFP response vs DMSO for this compound: Cc1[nH]c2ccccc2c1/C=C/c1nc2ccccc2c(=O)n1CCO
// result 110

// query Look up GFP response vs DMSO for this compound: O=C(CC1SC(=O)NC1=O)Nc1ccc(Cl)cc1 (stereo not given)
// result 98

// query Look up GFP response vs DMSO for this compound: CCN(CCCc1ccccc1)CCCc1ccccc1
// result 106

// query Look up GFP response vs DMSO for this compound: Cc1c(OCC(F)(F)F)ccnc1CS(=O)c1nc2ccccc2[nH]1 (stereo not given)
// result 119

// query Look up GFP response vs DMSO for this compound: COc1ccc(/C=C/C(=O)c2cc3cccc(OC)c3oc2=O)cc1
// result 106

// query Look up GFP response vs DMSO for this compound: COc1ccc(S(=O)(=O)NCc2ccco2)c2ccccc12
// result 114

// query Look up GFP response vs DMSO for this compound: COc1ccc(C2c3c(n[nH]c3C)CC(C)(O)C2C(C)=O)cc1OC (stereo not given)
// result 76.5

====

- test method notes: interference with biotin-avidin bead interaction – biochemical, flow cytometry, bead-based, counter-screen for RGS protein interaction modulators (AID 1783);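 also: median green fluorescence of gated singlet beads compared with DMSO control wells; 0% = DMSO wells and 100% = complete loss of bead fluorescence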
- condition description: streptavidin beads, fluorescein-biotin binding; at 10 µM, stronger effect = higher value
This is one part of the list.
reported endpoint: inhibition (%)
Express it in %; write the number only.

Examples with answers:
CCOC(=O)CSc1nc2c(c(=O)n(Cc3ccccc3Cl)c(=O)n2C)n1C :: 0.8
CN(C)CCN=c1cc(-c2ccccc2)oc2ccc(Cl)cc12 :: -3.8
CCC(=O)Nc1c(S(=O)(=O)c2ccccc2)c2nc3ccccc3nc2n1Cc1ccccc1 :: -0.3
Cc1cccc(S(=O)(=O)CC(=O)Nc2nc(-c3ccccc3)cs2)c1 :: 1.7
COc1ccccc1-n1c(-c2cc(-c3ccco3)[nH]n2)n[nH]c1=S :: 0.5

// query Look up inhibition for this molecule: O=C(Nc1ccccc1)OCc1cc(-c2ccc(Cl)cc2)on1
// result 2.5

// query Look up inhibition for this molecule: O=C1CCC(=O)N(O)CCCCCNC(=O)CCC(=O)N(O)CCCCCNC(=O)CCC(=O)N(O)CCCCCN1
// result -0.3

// query Look up inhibition for this molecule: CCOC(=O)c1oc2c(CN3CCN(C)CC3)c(O)ccc2c(=O)c1-c1ccc(Br)cc1
// result -0.6

====

- test method notes: TOR pathway reporter MEP2-GFP, retest of hits – S. cerevisiae, flow cytometry GFP, cherry picks, confirmation (AID 2272);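 also: ratio of well signal to plate DMSO mean so 100% equals DMSO level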
- condition description: S. cerevisiae MEP2-GFP strain, 3 h, at 10 µM, stronger effect = higher value
Some molecules, each annotated with its measured GFP response vs DMSO.
Express it in %; write the number only.

Examples with answers:
C[C@]12C[C@H](O)[C@H]3[C@@H](CCC4=CC(=O)CC[C@@]43C)[C@@H]1CC[C@@H]2C(=O)CO :: 98.3
CC(=O)O[C@]1(C(C)=O)CC[C@H]2[C@@H]3C[C@H](C)C4=CC(=O)CC[C@]4(C)[C@H]3CC[C@@]21C :: 93.3
O=c1cc(-c2ccccc2)oc2cc(OCc3ccccc3)cc(O)c12 :: 100

// query Look up GFP response vs DMSO for this molecule: N=c1nc(N2CCCCC2)cc(N)n1O
// result 98.3

// query Look up GFP response vs DMSO for this molecule: C[C@]12CCC(=O)C=C1CC[C@@H]1[C@@H]2[C@@H](O)C[C@@]2(C)[C@H]1CC[C@]2(O)C(=O)CO
// result 100

====

- test system: Beta-2 adrenergic receptor (Homo sapiens)
- test method notes: agonist-induced loss of surface beta2AR – cell-based, FAP fluorogen, flow cytometry, validation set, pilot screen (AID 504459);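 also: agonist-driven loss of surface beta2AR via internalization measured by FAP dye flow cytometry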
- condition description: Am2.2-beta2AR cells, at 10 µM, stronger effect = higher value
Some compounds, each annotated with its measured response.
Express it in %; write the number only.

Examples with answers:
COc1ccc2c(c1)c(=O)oc1cc3occ(C(C)(C)C)c3cc12 :: -15.7
CSc1ccc(CN2CCN(CCC(C)C)C(CCO)C2)cc1 (centres undefined) :: -11.6
COc1ccc([C@H]2[C@H](C(=O)OC(C)(C)C)N3N=Cc4ccccc4C3C23C(=O)c2ccccc2C3=O)cc1OC (some centres undefined) :: 35.3

We now examine a further compound.
// query Look up response for this compound: NS(=O)(=O)c1cc2c(cc1Cl)NC(C(Cl)Cl)NS2(=O)=O (centres undefined)
// result 23.7

====

- test system: Cell division control protein 42 homolog (Homo sapiens)
- test method notes: inhibition of fluorescent GTP binding to wildtype Cdc42 – biochemical, multiplex bead flow cytometry, Bodipy-FL-GTP, dose response (AID 1334)
- condition description: bead-based flow cytometry, Bodipy-FL-GTP binding to GST-Cdc42; at 100 µM (top of the series) unless noted
Measured potencies and affinities stand elsewhere.
fluorescence, percent of control (lower = inhibition) vs 60%: less than gives y; not less than gives n.

// below: answered compounds
COc1ccccc1OCc1ccoc1C(=O)O :: n
CCC(OC(=O)c1cc2sccc2n1C)C(=O)NCc1ccco1 (stereo unspecified) :: y
O=C(C[n+]1cccc(CNC(=O)c2ccc(OC(F)F)cc2)c1)Nc1ccccc1Cl :: y
COc1ccc2c(C)cc3nncn3c2c1 :: y

// query Does the reported fluorescence, percent of control (lower = inhibition) of the following compound sit strictly below 60%? CCNC(=O)c1cc2c(=O)n3cccc(C)c3nc2n(CCc2ccccc2)c1=N
// result n

// query Does the reported fluorescence, percent of control (lower = inhibition) of the following compound sit strictly below 60%? NS(=O)(=O)c1ccc(-c2ccc(/C=C3\C(=O)Nc4cc(Cl)ccc43)o2)cc1
// result y

// query Does the reported fluorescence, percent of control (lower = inhibition) of the following compound sit strictly below 60%? COC(=O)COc1ccc(/C=N/NC(=O)c2ccc(N(Cc3ccccc3)S(C)(=O)=O)cc2)cc1
// result y

// query Does the reported fluorescence, percent of control (lower = inhibition) of the following compound sit strictly below 60%? O=C(O)c1ccccc1OCCOc1ccccc1
// result n

// query Does the reported fluorescence, percent of control (lower = inhibition) of the following compound sit strictly below 60%? Cc1ccc(C)c(N2CCN(C(=O)CN(C)S(=O)(=O)c3ccc4c(c3)CCC(=O)N4)CC2)c1
// result y

// query Does the reported fluorescence, percent of control (lower = inhibition) of the following compound sit strictly below 60%? Cc1nn(-c2ccc(F)cc2)c(Cl)c1/C=C(\CCC(=O)O)c1nc2ccccc2s1
// result n

====

- System: anti-desmoglein-3 scFv antibody binding to human DSG3
- test method notes: blockers of pathogenic pemphigus antibody–desmoglein-3 binding – biochemical, validation compound set, bead-based, flow cytometry, pilot screen (AID 588368);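 also: signal is the median channel fluorescence of bead-bound GFP antibody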
- condition description: Protein G beads, DSG3-Fc, scFv-GFP binding, at 10 µM, stronger effect = lower value
Some compounds, each annotated with its measured binding (% of control).
Express it in %; write the number only.

// query Look up binding (% of control) for this compound: COC(=O)C1=C(C)NC(C)=C(C(=O)OCCN(C)Cc2ccccc2)C1c1cccc([N+](=O)[O-])c1 (configuration not stated)
// result 97.3

// query Look up binding (% of control) for this compound: CC(=O)OC1c2c(ccc3ccc(=O)oc23)OC(C)(C)C1OC(=O)CC(C)C (configuration not stated)
// result 100

// query Look up binding (% of control) for this compound: CC1(C)CC(=O)C(C2=NC(C)(C)Cc3ccccc32)=C(O)C1
// result 91.7

// query Look up binding (% of control) for this compound: CCN(CC)C(=O)N1CCN(C)CC1
// result 103

// query Look up binding (% of control) for this compound: NNC(=O)c1cc(O)c(O)c(O)c1
// result 91.2

// query Look up binding (% of control) for this compound: O=c1c2[nH]c3ccccc3c2ncn1CCC1=CCCCC1
// result 101

====

Some molecules, each annotated with its measured RGS16–Galpha-o binding response.
- test system: Regulator of G-protein signaling 16 (Homo sapiens)
- test method notes: small molecules altering RGS protein interactions with GNAO1 – biochemical, multiplexed beads, flow cytometry, RGS4/7/8/16/19, primary screen (AID 1504);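 also: fluorescently labeled Galpha-o bound to GDP with aluminium fluoride binding biotinylated RGS beads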
- condition description: multiplexed bead flow cytometry, measured here: RGS16 interaction, at 10 µM
Some of the results follow.
Express it in %; write the number only.

CCCn1nnnc1NC(=O)COc1ccc(Cl)cc1C :: 2.27
Cc1cc2nc(C)n(CCCNC(=O)Nc3ccccc3)c2cc1C :: 283

// query Look up RGS16–Galpha-o binding response for this molecule: N#Cc1nc(COc2ccc(-c3ccccc3)cc2)oc1NCc1cccnc1
// result 0

// query Look up RGS16–Galpha-o binding response for this molecule: CN1CCN(C(CNS(=O)(=O)c2cccs2)c2cccnc2)CC1 (centres undefined)
// result -5.62

// query Look up RGS16–Galpha-o binding response for this molecule: Cc1c(CN2CCCC(C(=O)c3cccc(Cl)c3)C2)c(=O)n(-c2ccccc2)n1C (centres undefined)
// result 97.1
